molecular target: Metabotropic glutamate receptor 5 (Mus musculus); experiment: Positive allosteric modulator activity at mGluR5 in mouse BV2 cells assessed as inhibition of nitric oxide production pre-treated 1 hr before lipopolysaccharide stimulation and measured 24 hrs post lipopolysaccharide stimulation by Griess reagent assay; type: cell-based, BV-2; conditions: read-out: IC50
Sequence (Q3UVX5 whole entry): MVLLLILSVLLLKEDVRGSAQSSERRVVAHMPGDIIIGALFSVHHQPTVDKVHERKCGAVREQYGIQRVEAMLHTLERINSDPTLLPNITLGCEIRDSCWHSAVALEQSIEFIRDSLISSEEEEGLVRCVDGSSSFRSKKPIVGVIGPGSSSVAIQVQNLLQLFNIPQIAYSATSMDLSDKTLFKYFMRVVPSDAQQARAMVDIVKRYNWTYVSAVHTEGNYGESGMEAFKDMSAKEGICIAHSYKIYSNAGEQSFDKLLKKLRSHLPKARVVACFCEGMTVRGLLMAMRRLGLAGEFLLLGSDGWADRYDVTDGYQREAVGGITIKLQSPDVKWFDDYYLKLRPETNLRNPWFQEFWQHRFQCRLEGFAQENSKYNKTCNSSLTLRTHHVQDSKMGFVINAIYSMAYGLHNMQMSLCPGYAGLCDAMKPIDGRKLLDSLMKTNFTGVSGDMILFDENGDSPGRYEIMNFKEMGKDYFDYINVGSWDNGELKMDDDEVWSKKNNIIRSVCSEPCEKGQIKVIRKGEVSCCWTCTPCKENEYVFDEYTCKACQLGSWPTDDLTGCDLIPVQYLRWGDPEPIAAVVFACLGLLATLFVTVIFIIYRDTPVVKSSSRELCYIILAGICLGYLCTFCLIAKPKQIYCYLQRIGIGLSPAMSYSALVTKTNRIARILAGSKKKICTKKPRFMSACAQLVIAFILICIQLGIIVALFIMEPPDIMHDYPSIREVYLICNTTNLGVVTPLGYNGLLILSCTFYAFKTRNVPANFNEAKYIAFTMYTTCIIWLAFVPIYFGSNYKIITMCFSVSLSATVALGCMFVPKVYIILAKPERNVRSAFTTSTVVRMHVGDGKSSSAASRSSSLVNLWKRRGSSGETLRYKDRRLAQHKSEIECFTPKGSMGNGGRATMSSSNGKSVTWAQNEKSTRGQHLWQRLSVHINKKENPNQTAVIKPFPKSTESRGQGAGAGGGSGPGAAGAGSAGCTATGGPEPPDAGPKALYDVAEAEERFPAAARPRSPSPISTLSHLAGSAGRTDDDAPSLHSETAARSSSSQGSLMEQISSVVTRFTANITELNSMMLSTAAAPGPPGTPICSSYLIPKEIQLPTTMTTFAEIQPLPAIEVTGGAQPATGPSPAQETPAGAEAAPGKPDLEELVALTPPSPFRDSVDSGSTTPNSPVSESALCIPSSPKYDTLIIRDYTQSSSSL
measured_attribute: pIC50
For clarity, pIC50 is expressed as the negative log10 of concentration in mol/L.

entry_smiles | target_desc | pIC50
CN(C(=O)c1cccc(Cl)c1)c1nc2ccccc2[nH]1 | Metabotropic glutamate receptor 5 (Mus musculus) | 3.68
O=C(Nc1nc2ccccc2[nH]1)c1ccc(F)cc1 | Metabotropic glutamate receptor 5 (Mus musculus) | 4.82
O=C(Nc1nc2ccccc2[nH]1)c1ccc(Cl)c(Cl)c1 | Metabotropic glutamate receptor 5 (Mus musculus) | 5.01
O=C(Nc1nc2ccccc2[nH]1)c1cccc(C(F)(F)F)c1 | Metabotropic glutamate receptor 5 (Mus musculus) | 4.92
O=C(Nc1nc2ccccc2[nH]1)c1cc(Cl)ccc1Cl | Metabotropic glutamate receptor 5 (Mus musculus) | 4.92

Look up pIC50: "CN(C)c1cccc(C(=O)Nc2nc3ccccc3[nH]2)c1"
4.70

Proceed to "O=C(Nc1nc2ccccc2[nH]1)c1ccccc1"
3.80

Proceed to "COc1ccc(C(=O)Nc2nc3ccccc3[nH]2)cc1"
4.00
